# Test system: NCI-H23
# Protocol Text: NCI tumour cell line growth inhibition, 48 h
Activity calls are given as the source filed them. No stated cut-off is given here; in the data, active = GI50 up to about 1.1 µM and inactive = higher.
Reported Endpoint: GI50

# Compound, Observed Measurement
records = [
    ("COC(=O)C(C(=O)C(=O)Nc1ccc(C)cc1)c1nc2ccc([N+](=O)[O-])cc2nc1O (stereo not drawn)", "> 100 µM (inactive)"),
]

Let us move to another entry and its GI50.
Request: Look at this compound and give its reported GI50. O=C1Nc2ccccc2C12CCCC2
Result: > 100 µM (inactive)

* * *

# Tested on: HCT-15
Where a SMILES comes first, the peptide text is derived from it. The star is where a group is joined. Boc = CC(C)(C)OC(=O)*
The entries below come with measured GI50 values attached.

# Compound, GI50
measured = [
    ("Nc1ncnc2c1nnn2C1C=C(CO)C(O)C1O (centres undefined)", "26.6 µM"),
    ("CN(CCCCN1CCCC1)CCCN(C)C(=O)Cc1ccc(Cl)c(Cl)c1", "27.3 µM"),
    ("CN(C)CCC(=O)N1CCc2c([nH]c3ccccc23)C1c1cccnc1 (centres undefined)", "> 100 µM"),
    ("NC(=O)C(=CN1C(=O)CC(=O)NC1=S)C(N)=O", "> 100 µM"),
    ("NC1=NS(=O)(=O)Nc2[nH]c(-c3ccccc3)nc21", "> 100 µM"),
]

Request: Look at this compound and give its reported GI50. Cc1ccc(-c2nc(Cc3n[nH]c(-c4ccc(C)cc4)n3)n[nH]2)cc1
Result: > 100 µM

Request: Look at this compound and give its reported GI50. COC(=O)C(Cc1c[nH]c2ccccc12)NC(=O)C(Cc1c[nH]c2ccccc12)NC(=O)C(Cc1c[nH]c2ccccc12)NC(=O)C(Cc1c[nH]c2ccccc12)NC(=O)C(Cc1c[nH]c2ccccc12)NC(=O)C(Cc1c[nH]c2ccccc12)NC(=O)C(Cc1c[nH]c2ccccc12)NC(=O)C(Cc1c[nH]c2ccccc12)NC(=O)OC(C)(C)C (centres undefined) (Boc-WWWWWWWW-OMe; configuration not given here)
Result: > 100 µM

Reference source: ChEMBL document CHEMBL1201862
